- Tested on: HCMV Strain AD169 in MRC-5 cells
- Assay Method Text: Viral qPCR assay HCMV (V0/V1, V2/V3), EC50
- Type: cell-based
- Settings: Human betaherpesvirus 5, AD169, MRC5, viral qPCR assay of Example 191; read-out: HCMV Cell (EC50)
Reported Metric: pEC50
Lab note: report pEC50 as minus log10 of the concentration in molar units, number only.

Check out these entries, answers already filled in.
{"columns": ["Input Smiles", "System Tested", "Test Value"],
 "data": [
  ["O=C(NCc1ccc(Cl)cc1)c1cc(O[C@H]2CCN3C(=O)OC[C@@H]3C2)c(N2CC(F)C2)cn1", "HCMV Strain AD169 in MRC-5 cells", 6.70],
  ["CC(=O)N1CCC(Oc2cc(C(=O)NCc3ccc(Cl)cc3)ncc2-c2cnoc2)CC1", "HCMV Strain AD169 in MRC-5 cells", 5.74],
  ["CC(=O)N1CCC(Oc2cc(C(=O)NCc3ccc(Cl)cc3)ncc2-c2cn(C)c(CCO)n2)CC1", "HCMV Strain AD169 in MRC-5 cells", 6.11]
]}

Give HCMV Strain AD169 in MRC-5 cells pEC50 for O=C(NCc1ccc(Cl)cc1)c1cc(O[C@H]2CCN3C(=O)OC[C@@H]3C2)c(CCO)cn1 6.20

###

- Test system: HSV-1 Strain F in Vero or MRC5 cells
- Assay Method Text: Viral qPCR assay HSV-1 (V0/V1, V2/V3), EC50
- Type: cell-based
- Settings: Human alphaherpesvirus 1, Vero, VERO cells, 10%; read-out: HSV1 Cell (EC50) VERO 10%
Reported Metric: EC50 (nM)
Quick reminder: number only, in nM, skip the unit.

Before answering, review these 5 worked examples.
{"columns": ["Compound", "Reported Metric", "Test Value"],
 "data": [
  ["O=C(NCc1ccc(Cl)cc1)c1cc(O[C@H]2CCN3C(=O)OC[C@@H]3C2)c(-c2cnc(CO)s2)cn1", "EC50", 224],
  ["Cn1cc(-c2cnc(C(=O)NCc3ccc(F)c(F)c3F)cc2O[C@H]2CCN3C(=O)OC[C@@H]3C2)cn1", "EC50", 368],
  ["Cn1cc(-c2cnc(C(=O)NCc3ccc(C#N)c(F)c3)cc2O[C@H]2CCN3C(=O)OC[C@@H]3C2)cn1", "EC50", 241],
  ["O=C(NCc1ccc(Cl)cc1)c1cc(O[C@H]2CCN3C(=O)OC[C@@H]3C2)c(-c2cnn(CC(F)F)c2)cn1", "EC50", 300],
  ["CC(=O)N1CCC(Oc2cc(C(=O)NCc3ccc(Cl)cc3)ncc2-c2cnn(C)c2)CC1", "EC50", 144]
]}

Now take the following compound into account.
API: value(readout= EC50, system= HSV-1 Strain F in Vero or MRC5 cells, query= O=C(NCc1ccc(Cl)cc1)c1cc(O[C@H]2CCN3C(=O)CCC[C@@H]3C2)c(-c2cnn(C(F)F)c2)cn1 (single isomer, unassigned) ) 461

###

The reader will find reported EC50 values listed item by item below.
- Tested on: HCMV Strain AD169 in MRC-5 cells
- Assay Method Text: Viral qPCR assay HCMV (V0/V1, V2/V3), EC50
- Format: cell-based
- Settings: Human betaherpesvirus 5, AD169, MRC5, viral qPCR assay of Example 191; read-out: HCMV Cell (EC50)
Answer format: numeric, nM implied, no suffix.

{"columns": ["Compound", "Reported Metric", "Test Value"],
 "data": [
  ["O=C(NCc1ccc(Cl)cc1)c1cc(O[C@H]2CCN3C(=O)OC[C@@H]3C2)c(N2CC(O)C2)cn1 [Compound 122]", "EC50", 121]
]}

Value lookup for EC50; key = Cn1cnc(-c2cnc(C(=O)NCc3ccc(Cl)cc3)cc2O[C@H]2CCN3C(=O)OC[C@@H]3C2)c1 [Compound 38] 72.8

Recorded EC50 of CN1CCC(N2CCC(C(=O)OCN(Cc3ccc(Cl)cc3)C(=O)c3cc(O[C@H]4CCN5C(=O)OC[C@@H]5C4)c(-c4cnn(C(F)F)c4)cn3)CC2)CC1 [Compound 184] , please. 519
